Just for reference, paper PMC3362725 is where these values come from.

assay: Pharmacokinetics of oral linifanib in plasma and urine, non-compartmental analysis, phase 1 study; assay type: in vivo, human (Japanese patients with solid tumors); conditions: human, plasma, oral, 0.2 mg/kg; 0.20 mg/kg once daily, multiple dose (C1D15), pre-dose concentration assumed equal to 24 h, mean ± SD, N 3; read-out: AUC24
Measured attribute: AUC (ng·h/mL)
The response must be a number in ng·h/mL with no trailing unit.

Problem: Using the record for `Cc1ccc(F)c(NC(=O)Nc2ccc(-c3cccc4[nH]nc(N)c34)cc2)c1` , report its AUC.
Result: 5630

* * *

assay: Pharmacokinetics of oral linifanib in plasma and urine, non-compartmental analysis, phase 1 study; format: in vivo, human (Japanese patients with solid tumors); settings: human, plasma, oral, 0.1 mg/kg; 0.10 mg/kg once daily, multiple dose (C1D15), mean ± SD, N 5; read-out: T max
Measured attribute: Tmax (h)
Entry rule: numbers only, all in h.

Problem: Entry under review: `Cc1ccc(F)c(NC(=O)Nc2ccc(-c3cccc4[nH]nc(N)c34)cc2)c1` . Reported Tmax?
Result: 2.2
